# System: A549
# ASSAY REMARKS: Cytotoxicity against human A549 cells assessed as growth inhibition after 24 hrs by MTT assay
# Assay type: functional, cell-based
# CONDITION DESCRIPTION: A549, 24 h
Field 'label' (enum: Met / Not met). Set to Met when IC50 is strictly under 40 µM; else Not met.

Solved entries (count: 10):
{"QUERY SMILES": "C(=N\\c1ccccc1)/c1cc(-c2ccccc2)no1", "STUDY SYSTEM": "A549", "CLASSIFICATION": "Not met"}
{"QUERY SMILES": "CCCCCc1cc2ccccc2nc1-c1cc(-c2ccc(C(F)(F)F)cc2)no1", "STUDY SYSTEM": "A549", "CLASSIFICATION": "Met"}
{"QUERY SMILES": "CCc1cc2ccccc2nc1-c1cc(-c2ccc(C)cc2)no1", "STUDY SYSTEM": "A549", "CLASSIFICATION": "Not met"}
{"QUERY SMILES": "CCCc1cc2ccccc2nc1-c1cc(-c2ccc(C)cc2)no1", "STUDY SYSTEM": "A549", "CLASSIFICATION": "Not met"}
{"QUERY SMILES": "CCCCc1cc2ccccc2nc1-c1cc(-c2ccc(C(F)(F)F)cc2)no1", "STUDY SYSTEM": "A549", "CLASSIFICATION": "Met"}
{"QUERY SMILES": "CCCc1cc2ccccc2nc1-c1cc(-c2ccccc2)no1", "STUDY SYSTEM": "A549", "CLASSIFICATION": "Not met"}
{"QUERY SMILES": "Cc1ccc(-c2cc(/C=N/c3ccccc3)on2)cc1", "STUDY SYSTEM": "A549", "CLASSIFICATION": "Met"}
{"QUERY SMILES": "CCCCc1cc2ccccc2nc1-c1cc(-c2ccc(F)cc2)no1", "STUDY SYSTEM": "A549", "CLASSIFICATION": "Met"}
{"QUERY SMILES": "CCc1cc2ccccc2nc1-c1cc(-c2ccc(F)cc2)no1", "STUDY SYSTEM": "A549", "CLASSIFICATION": "Not met"}
{"QUERY SMILES": "CCCc1cc2ccccc2nc1-c1cc(-c2ccc(C(F)(F)F)cc2)no1", "STUDY SYSTEM": "A549", "CLASSIFICATION": "Not met"}

# check: IC50 < 40 µM for Fc1ccc(-c2cc(/C=N/c3ccccc3)on2)cc1 Met

How about CCCCCc1cc2ccccc2nc1-c1cc(-c2ccccc2)no1 ? Not met

Can you check CCc1cc2ccccc2nc1-c1cc(-c2ccccc2)no1 next? Not met

Here is the next compound: CCc1cc2ccccc2nc1-c1cc(-c2ccc(C(F)(F)F)cc2)no1 Not met

What about CCCCCc1cc2ccccc2nc1-c1cc(-c2ccc(C)cc2)no1 ? Not met

# repeat for CCCCc1cc2ccccc2nc1-c1cc(-c2ccccc2)no1 Not met

Lookup CCCCc1cc2ccccc2nc1-c1cc(-c2ccc(C)cc2)no1 Not met

Another compound: CCCc1cc2ccccc2nc1-c1cc(-c2ccc(F)cc2)no1 Not met

Measured values drawn from ChEMBL document CHEMBL3124930 for this set.
